Just for reference, patent US12491170B2 is where these values come from.

experiment: Stability in cryopreserved hepatocytes, human
measurement_type: Trep Concentration (μM) 15 min (µM)
Numbers only, in µM.

These recorded examples may help you get a feel for the data.
CCCCCC(CCC1C(O)CC2Cc3c(cccc3OCC(=O)O)CC21)OC(=O)c1ccc(O)cc1 (centres unmarked) [LXVIII] :: 0.147
CCCCCC(CCC1C(O)CC2Cc3c(cccc3OCC(=O)O)CC21)OCC(=O)O (centres unmarked) [LVII] :: 0
CCCCCC(CCC1C(O)CC2Cc3c(cccc3OCC(=O)O)CC21)OC(=O)COc1ccccc1 (centres unmarked) [LXV] :: 0.559
CCCCCC(CCC1C(O)CC2Cc3c(cccc3OCC(=O)O)CC21)OC(=O)c1ccc(C)cc1 (centres unmarked) [XLVIII] :: 0.342
CCCCCC(CCC1C(O)CC2Cc3c(cccc3OCC(=O)O)CC21)OC(=O)CO (centres unmarked) [XLIV] :: 0.406

Can you give me Trep Concentration (μM) 15 min for all of these, one by one?
1. CCCCCC(CCC1C(O)CC2Cc3c(cccc3OCC(=O)O)CC21)OC(=O)c1ccc(O)c(O)c1 (centres unmarked) [LXVI]
2. CCCCCC(CCC1C(OC(=O)CC)CC2Cc3c(cccc3OCC(=O)O)CC21)OC(=O)CC (centres unmarked) [Prodrug LXX, treprostinil dipropionate]
3. CCCCCC(CCC1C(O)CC2Cc3c(cccc3OCC(=O)O)CC21)OC(=O)C12CC3CC(CC(C3)C1)C2 (centres unmarked) [LXIX]
4. CCCCCC(CCC1C(O)CC2Cc3c(cccc3OCC(=O)O)CC21)Oc1ccccc1C(=O)O (centres unmarked) [LVI]

0.0209
0.638
0.198
0

* * *

experiment: Stability in liver microsomes, human
Method: Mixed-gender human liver microsomes, male Sprague-Dawley rat liver microsomes, and male Beagle dog liver microsomes were purchased from XenoTech. The reaction mixture, minus NADPH, was prepared as described below. […] Aliquots of the supernatant were removed, diluted 1:1 into distilled water containing internal standard, and analyzed by LC-MS/MS against calibration standards prepared in a matched matrix. All samples were analyzed for the dosed prodrugs as well as the drug, treprostinil. […]
measurement_type: Treprostinil Concentration 15 min (µM)
Answers are plain numbers, in µM.

CCCCCC(CCC1C(O)CC2Cc3c(cccc3OCC(=O)O)CC21)OC(=O)CC (stereo not shown) [Prodrug LV] :: 1.01
CCCCCC(CCC1C(O)CC2Cc3c(cccc3OCC(=O)O)CC21)OC(C)=O (stereo not shown) [Prodrug XLIII] :: 0.681
CCCCCC(CCC1C(O)CC2Cc3c(cccc3OCC(=O)O)CC21)OP(=O)(O)O (stereo not shown) [Prodrug VI] :: 0.038

Consider now this further compound.
I have this compound here, CCCCCC(CCC1C(OC(=O)CC)CC2Cc3c(cccc3OCC(=O)O)CC21)OC(=O)CC (stereo not shown) [Prodrug LXX, treprostinil dipropionate] , and I need its recorded Treprostinil Concentration 15 min. 0.903

* * *

experiment: Stability in liver microsomes, human
Procedure: Mixed-gender human liver microsomes, male Sprague-Dawley rat liver microsomes, and male Beagle dog liver microsomes were purchased from XenoTech. The reaction mixture, minus NADPH, was prepared as described below. […] Aliquots of the supernatant were removed, diluted 1:1 into distilled water containing internal standard, and analyzed by LC-MS/MS against calibration standards prepared in a matched matrix. All samples were analyzed for the dosed prodrugs as well as the drug, treprostinil. […]
Give measured Treprostinil Concentration 0 min for each item. Keep answers brief.
One number for each entry, in µM.

These recorded examples may help you get a feel for the data.
CCCCCC(CCC1C(O)CC2Cc3c(cccc3OCC(=O)O)CC21)OP(=O)(O)O (stereo not shown) [Prodrug VI] :: 0.02
CCCCCC(CCC1C(OC(=O)CC)CC2Cc3c(cccc3OCC(=O)O)CC21)OC(=O)CC (stereo not shown) [Prodrug LXX, treprostinil dipropionate] :: 1.18
CCCCCC(CCC1C(O)CC2Cc3c(cccc3OCC(=O)O)CC21)OC(C)=O (stereo not shown) [Prodrug XLIII] :: 0.883

Consider now this further compound.
I have this compound here, CCCCCC(CCC1C(O)CC2Cc3c(cccc3OCC(=O)O)CC21)OC(=O)CC (stereo not shown) [Prodrug LV] , and I need its recorded Treprostinil Concentration 0 min. 1.17
